Provenance of the data: patent US20220251124A1

system: BxPC3; test: crystal violet assay, cellular viability, 48 hrs; type: cell-based; settings: Homo sapiens, BXPC-3
Recorded measurements of pIC50, one per entry
Note: pIC50 values are expressed as the negative base-10 logarithm of concentration in M.

* O=C(O)c1ccc(-n2nc(-c3ccccc3O)nc2-c2ccccc2O)cc1 [DFX, deferasirox, reference compound] | 4.64

Returns the measured pIC50 for the input compound. Input: O=C(NCCCCCCCCCC[P+](c1ccccc1)(c1ccccc1)c1ccccc1)c1ccc(-n2nc(-c3ccccc3O)nc2-c2ccccc2O)cc1 [Compound 1] 6.82

###

test system: tamoxifen resistant T47D (Tam5R); assay: crystal violet assay, tamoxifen resistant cells; type: cell-based; conditions: Homo sapiens, T47D Tam5R grown in the presence of 5 μM tamoxifen
Recorded measurements of IC50, one per entry
API: value field is a number in µM; no unit string.

* O=C(NCCCCCCCCCC[P+](c1ccccc1)(c1ccccc1)c1ccccc1)c1ccc(-n2nc(-c3ccccc3O)nc2-c2ccccc2O)cc1 | 0.112

The record that follows has no IC50 shown yet.
Returns the measured IC50 for the input molecule. Input: O=C(O)c1ccc(-n2nc(-c3ccccc3O)nc2-c2ccccc2O)cc1 [DFX, deferasirox, reference compound] 82.6

###

System: cancer cell lines
Assay: crystal violet assay, cancer cell lines overall
Assay type: cell-based
Conditions: cancer cells, crystal violet
Experimental: Compound 1 and a comparative compound deferasirox (DFX) were tested in their efficacy to kill/suppress proliferation of malignant breast cancer MCF7 cells representing estrogen-dependent type of breast cancer. Briefly, 10.000 cells per well were seeded in a 96-well plate on one day and the next day the tested compounds were added and incubated with the cells for 48 hrs. […] The absorbance of the plate at 595 nm was then measured, quantifying the number of viable cells.
pIC50: −log10 of the molar value.
value-type: pIC50

Query for cancer cell lines: what pIC50 does the record show for Oc1ccccc1-c1nc(-c2ccccc2O)n(CCCCCCCCCC[P+](c2ccccc2)(c2ccccc2)c2ccccc2)n1 ? ~7.00

###

test system: UPF1H leukemia cell line; assay: alamarBlue Cell Viability Reagent, 48 hrs; format: cell-based; details: 48 h
value-type: pIC50
Note: pIC50 values are expressed as the negative base-10 logarithm of concentration in M.

Returns the measured pIC50 for the input compound. Input: O=C(NCCCCCCCCCC[P+](c1ccccc1)(c1ccccc1)c1ccccc1)c1ccc(-n2nc(-c3ccccc3O)nc2-c2ccccc2O)cc1 [Compound 1] 6.64

###

system: T47D; test: crystal violet assay, cellular viability, 48 hrs; assay type: cell-based; settings: Homo sapiens, T47D (parental/control)
value-type: IC50

Returns the measured IC50 for the input compound. Input: O=C(NCCCCCCCCCC[P+](c1ccccc1)(c1ccccc1)c1ccccc1)c1ccc(-n2nc(-c3ccccc3O)nc2-c2ccccc2O)cc1 [Compound 1] 31 nM

###

tested on: MDA-MB-231 cells; assay: crystal violet assay, cellular viability, 48 hrs; format: cell-based; conditions: Homo sapiens, MDA-MB-231, 48 h, MDA-MB-231, crystal violet, text
value-type: pIC50
Note: pIC50 values are expressed as the negative base-10 logarithm of concentration in M.

Returns the measured pIC50 for the input molecule. Input: O=C(NCCCCCCCCCC[P+](c1ccccc1)(c1ccccc1)c1ccccc1)c1ccc(-n2nc(-c3ccccc3O)nc2-c2ccccc2O)cc1 6.88
